Taken from paper PMC2721907.

Target: Plk1 PBD (purified recombinant) (human)
Experiment: ITC
Square brackets hold non-standard residues; d marks the D form. Ends that are not written are not given here. pT = C[C@@H](OP(=O)(O)O)[C@H](N)C(=O)O
Measured attribute: dH (kcal/mol)
Quick reminder: number only, in kcal/mol, skip the unit.

Before answering, review these 3 worked examples.
Binder	dH, kcal/mol
Ac-LHS[pT] [LHSpT, N-terminally acetylated]	-6.29
Ac-HS[pT]A [HSpTA, N-terminally acetylated]	-3.82
Ac-LHS[pT]AI [LHSpTAI, N-terminally acetylated]	-11.3

Would you kindly look at the next entry?
Lab note: measured dH of Ac-PLHS[pT]A [PLHSpTA, N-terminally acetylated] was -11.6
